// values below are reported Solubility [μmol per ml]
assay: Solubility screening in trehalose matrices pH 2.65 to 7.03; format: physicochemical; settings: 10 mM potassium dihydrogen phosphate and 260 mM trehalose dihydrate, pH 6.03;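 also: test items are peptides, each checked for solubility in every trehalose matrix, the matrices made up in distilled deionised water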
Ends that are not written are not given here.
Expressed in μmol per ml, but write only the number.

Past entries and their recorded results:
AERERIFKRFDANGEGK [Bir16A] = 9.229
AKYMVIQGEPGRVIRGK [Bir12B] = 10.474
ETLLRAVESYLLAHSDAY [Bir09] = 0.143

Query: Which measured Solubility [μmol per ml] value corresponds to FNYETETTSVIPAARK [BIR1I] ?
Reply: 10.470

Query: Which measured Solubility [μmol per ml] value corresponds to PAARMFKAFILEGDKLVPK [Bir02J] ?
Reply: 4.273

Query: Which measured Solubility [μmol per ml] value corresponds to PGTIKKISFPEGFPFKYV [Bir04] ?
Reply: 4.155

Query: Which measured Solubility [μmol per ml] value corresponds to KEMGETLLRAVESYLLAHS [Bir09B] ?
Reply: 0.147

Query: Which measured Solubility [μmol per ml] value corresponds to SNEIKIVATPEGGSILK [Bir07C] ?
Reply: 0.208
